System: RPMI-8226 leukemia
Assay: NCI-60 one-dose screen, 48 h
Conditions: 10 µM unless noted
About 83,000 compounds went through this panel and 20% of them were active in at least one assay; those are over-represented in the sample as a whole. Active and inactive are the calls of the source. The calls were made as follows: active = growth percent below 10; inactive = the rest.
Tick one outcome: Y (active), N (inactive)

q: What outcome does the record of this test show for COc1ccc(COc2cc3oc(=O)c4cc(C(C)O)ccc4c3cc2OC)cc1 (stereo unspecified) ?
a: N

q: For COc1cc2c(cc1OCCCCCN1CCN(c3ncnc4ccccc34)CC1)N=CC1CCCN1C2=O (stereo unspecified) , what call appears in the results of this test?
a: Y

q: What call does the record list for Cc1cc2c(-c3nc4ccccn4c3NC34CC5CC(CC(C5)C3)C4)c(O)c(O)cc2c(O)c1-c1c(C)cc2c(-c3nc4ccccn4c3NC34CC5CC(CC(C5)C3)C4)c(O)c(O)cc2c1O ?
a: N

q: GET /call?item= CCN1CCN(c2nc(C)cc(N(CCNc3ccnc4cc(Cl)ccc34)Cc3ccc4c(c3)OCO4)n2)CC1 returns the recorded outcome of this test.
a: Y

q: Hey, what did the test say about CO[C@H]1C[C@@H]2CC[C@@H](C)[C@@](O)(O2)C(=O)C(=O)N2CCCC[C@H]2C(=O)O[C@H]([C@H](C)C[C@@H]2CC[C@@H](O)[C@H](OC)C2)CC(=O)[C@H](C)/C=C(\C)[C@@H](O)[C@@H](OC)C(=O)[C@H](C)C[C@H](C)\C=C/C=C/C=C/1C ?
a: N

q: Test call, this molecule: Cc1nn(-c2nc3ccccc3[nH]2)c2c1C(c1ccc(OCc3ccc(F)cc3)cc1)CC(=O)N2 (stereo unspecified)
a: N

q: GET /call?item= CN1CCN(c2nc(C3=C(c4c[nH]c5ccccc45)C(=O)NC3=O)c3ccccc3n2)CC1 returns the recorded outcome of this test.
a: N

q: Hi team, can someone confirm the assay call for NC1(C(=O)N[C@@H](CCO)c2ccc(Cl)cc2)CCN(c2ncnc3[nH]ccc23)CC1 ?
a: N

q: Returns: the outcome recorded for N#CC1(C#N)C(c2cccs2)NC(c2cccs2)C1(C#N)C#N (stereo unspecified) in this assay.
a: N

q: For C[C@@H](Nc1cc(F)cc(F)c1)c1cc(C(=O)N(C)C)cc2c(=O)cc(N3CCOCC3)oc12 , which call appears in the assay record?
a: N

q: Recorded test outcome, item Cc1cc(N2CCOCC2)nc(N(CCNc2ccnc3cc(Cl)ccc23)Cc2cccs2)n1
a: Y

This collection of values is drawn from PubChem BioAssay (NCI).
